Consider the following compounds; for each one, report its Plant response rating, Oat, Wild.
Tested on: wild oat
Experiment: Test D preemergence test
Type: in vivo, Avena fatua
Conditions: 250 g ai/ha, scale 0 to 100

Guide cases for Plant response rating, Oat, Wild, answers given:
Cc1cc[n+]([O-])c(S(=O)(=O)C(C)c2c(C(F)(F)F)nn(C)c2Cl)c1 (racemic): 20
Cn1nc(C(F)(F)F)c(C(Cl)S(=O)(=O)c2cccc[n+]2[O-])c1Cl (stereo not shown): 0
Cc1cc[n+]([O-])c([S+]([O-])Cc2c(C(F)(F)F)nn(C)c2OC(F)F)c1 (stereo not shown): 40

# evaluate next
## Input // returns reported Plant response rating, Oat, Wild for input Cn1nc(C(F)(F)F)c(CS(=O)(=O)c2cccc[n+]2[O-])c1OC(F)F
## Output 35

----------
Test system: giant foxtail
Experiment: Test A pre-/postemergence greenhouse test
Assay type: in vivo, Setaria faberi
Settings: Postemergence, 125 g ai/ha; 0 to 100 scale where 0 is no effect and 100 is complete control
Criterion: Plant response rating, Foxtail, Giant meeting or surpassing 80. Met: MET. Not met: NOT MET.

Past entries and their recorded results:
Cn1nc(C(F)(F)F)c(C[S+]([O-])c2ccc(F)c[n+]2[O-])c1Cl (stereo not shown) [Compound 54]: NOT MET
Cn1nc(C(F)(F)F)c(CS(=O)(=O)c2ccc(Cl)c[n+]2[O-])c1OCC(F)(F)C(F)(F)F [Compound 97]: NOT MET
Cc1cc[n+]([O-])c(S(=O)(=O)Cc2c(C(F)(F)C(F)(F)F)nn(C)c2OCC(F)(F)F)c1 [Compound 99]: NOT MET

Kindly consider the entry below.
## Input Threshold query (Plant response rating, Foxtail, Giant >= 80) on CCn1nc(C(F)(F)F)c(C[S+]([O-])c2cccc[n+]2[O-])c1OCC(F)(F)F (racemic) [Compound 65]
## Output MET

----------
Tested on: common ragweed
Assay: Test F preemergence test
Assay type: in vivo, Ambrosia elation
Details: Preemergence; 31 g ai/ha; scale 0 to 100
Consider the following compounds; for each one, report its Plant response rating, Ragweed.

Guide cases for Plant response rating, Ragweed, answers given:
CC(Oc1c(C[S+]([O-])c2ccc(Cl)c[n+]2[O-])c(C(F)(F)F)nn1C)C(F)(F)F (stereo not shown): 0
Cn1nc(C(F)(F)F)c(C[S+]([O-])c2ccc(F)c[n+]2[O-])c1OC(F)F (stereo not shown): 50
Cc1cc[n+]([O-])c(S(=O)(=O)C(Cl)c2c(C(F)(F)F)nn(C)c2Cl)c1 (racemic): 0
Cc1cc[n+]([O-])c(S(=O)(=O)C(Cl)c2c(C(F)(F)F)nn(C)c2OCC(F)(F)F)c1 (racemic): 0
Cc1cc[n+]([O-])c([S+]([O-])Cc2c(C(F)(F)F)nn(C)c2OCC(F)(F)F)c1 (racemic): 60

Please look at the items below and tell me Plant response rating, Ragweed for each one, in order.
1. Cc1cc[n+]([O-])c([S+]([O-])Cc2c(C(F)(F)F)nn(C)c2Cl)c1 (racemic)
2. CCn1nc(C(F)(F)F)c(CS(=O)(=O)c2cc(C)cc[n+]2[O-])c1OCC(F)(F)F

## Output
1. 0
2. 30

----------
System: umbrella sedge
Experiment: Test C flooded paddy test
Assay type: in vivo, Cyperus difformis
Details: Flood, 125 g ai/ha; scale 0 to 100, 0 no effect, 100 complete control; 13 to 15 days
Consider the following compounds; for each one, report its Plant response rating, Sedge, Umbrella.
One number for each entry.

Please look at the items below and tell me Plant response rating, Sedge, Umbrella for each one, in order.
1. Cn1nc(C(F)(F)F)c(C(Cl)S(=O)(=O)c2cccc[n+]2[O-])c1Cl (stereo not drawn)
2. Cn1nc(C(F)(F)F)c(C[S+]([O-])c2cc(C(F)(F)F)cc[n+]2[O-])c1Cl (racemic)
3. Cn1nc(C(F)(F)F)c(C[S+]([O-])c2ccc(Cl)c[n+]2[O-])c1Cl (racemic)
4. Cc1cc[n+]([O-])c([S+]([O-])Cc2c(C(F)(F)F)nn(C)c2OCC(F)(F)F)c1 (racemic)
5. Cn1nc(C(F)(F)F)c(CS(=O)(=O)c2cc(F)cc[n+]2[O-])c1Cl
6. Cn1nc(C(F)(F)F)c(C(Cl)S(=O)(=O)c2ccc(Cl)c[n+]2[O-])c1Cl (racemic)
7. Cc1cc[n+]([O-])c(S(=O)(=O)C(C)c2c(C(F)(F)F)nn(C)c2OC(F)F)c1 (stereo not drawn)
8. Cn1nc(C(F)(F)F)c(C[S+]([O-])c2ccc(Cl)c[n+]2[O-])c1OCC(F)F (stereo not drawn)

## Output
100
85
95
100
80
40
90
60

## Input // returns reported Plant response rating, Sedge, Umbrella for input Cn1nc(C(F)(F)F)c(C[S+]([O-])c2cccc[n+]2[O-])c1OCC(F)(F)F (racemic)
## Output 100

----------
Tested on: common chickweed
Assay: Test F preemergence test
Format: in vivo, Stellaria media
Conditions: Preemergence; 31 g ai/ha; scale 0 to 100
test_readout: Plant response rating, Chickweed
Numbers only.

Guide cases for Plant response rating, Chickweed, answers given:
CC(Oc1c(C[S+]([O-])c2ccc(Cl)c[n+]2[O-])c(C(F)(F)F)nn1C)C(F)(F)F (stereo not drawn): 100
Cc1cc[n+]([O-])c([S+]([O-])Cc2c(C(F)(F)F)nn(C)c2Cl)c1 (racemic): 90

Please look at the items below and tell me Plant response rating, Chickweed for each one, in order.
1. Cc1cc[n+]([O-])c([S+]([O-])Cc2c(C(F)(F)F)nn(C)c2OCC(F)(F)F)c1 (racemic)
2. Cc1cc[n+]([O-])c(S(=O)(=O)C(C)c2c(C(F)(F)F)nn(C)c2OC(F)F)c1 (stereo not drawn)
3. Cc1cc[n+]([O-])c(S(=O)(=O)C(Cl)c2c(C(F)(F)F)nn(C)c2Cl)c1 (racemic)

## Output
1: 100; 2: 80; 3: 65

## Input Entry CCn1nc(C(F)(F)F)c(C[S+]([O-])c2cc(C)cc[n+]2[O-])c1OCC(F)(F)F (racemic) , system common chickweed: what Plant response rating, Chickweed was measured?
## Output 100

----------
Tested on: corn
Experiment: Test A pre-/postemergence greenhouse test
Type: in vivo, Zea mays
Conditions: Postemergence, 125 g ai/ha; 0 to 100 scale where 0 is no effect and 100 is complete control
test_readout: Plant response rating, Corn
Answers are plain numbers.

Guide cases for Plant response rating, Corn, answers given:
Cn1nc(C(F)(F)F)c(CS(=O)(=O)c2cc(C(C)(C)C)cc[n+]2[O-])c1OCC(F)(F)F: 0
CC(Oc1c(C[S+]([O-])c2cccc[n+]2[O-])c(C(F)(F)F)nn1C)C(F)(F)F (stereo not shown): 50
Cn1nc(C(F)(F)C(F)(F)F)c(C[S+]([O-])c2ccc(Cl)c[n+]2[O-])c1OCC(F)(F)F (stereo not shown): 70
CC(C)c1cc[n+]([O-])c([S+]([O-])Cc2c(C(F)(F)F)nn(C)c2OC(F)F)c1 (stereo not shown): 60

Please look at the items below and tell me Plant response rating, Corn for each one, in order.
1. Cc1cc(S(=O)(=O)Cc2c(C(F)(F)F)nn(C)c2OCC(F)(F)F)[n+]([O-])cc1Cl
2. Cn1nc(C(F)(F)F)c(C[S+]([O-])c2cccc[n+]2[O-])c1OCC(F)(F)C(F)(F)F (stereo not shown)
3. Cn1nc(C(F)(F)F)c(C[S+]([O-])c2ccc(F)c[n+]2[O-])c1OCC(F)(F)F (stereo not shown)

## Output
[0, 20, 60]

----------
System: field bindweed
Assay: Test F preemergence test
Type: in vivo, Convolvulus arvensis
Details: 62 g ai/ha, Preemergence; scale 0 to 100
Description: Seeds of plant species selected from bermudagrass (Cynodon dactylon), Surinam grass (Brachiaria decumbens), large crabgrass (Digitaria sanguinalis), green foxtail (Setaria viridis), goosegrass (Eleusine indica), johnsongrass (Sorghum halepense), kochia (Kochia scoparia), pitted morningglory (Ipomoea lacunosa), purple nutsedge (Cyperus rotundus), common ragweed (Ambrosia elation), mustard (Brassica nigra), guineagrass (Panicum maximum), […] […]
test_readout: Field Bindweed plant response rating

Cn1nc(C(F)(F)C(F)(F)F)c(C[S+]([O-])c2cccc[n+]2[O-])c1OCC(F)(F)F (stereo not drawn): 80
Cc1cc[n+]([O-])c(S(=O)(=O)C(Cl)c2c(C(F)(F)F)nn(C)c2Cl)c1 (racemic): 0

# evaluate next
## Input // returns reported Field Bindweed plant response rating for input Cn1nc(C(F)(F)F)c(C[S+]([O-])c2cccc[n+]2[O-])c1OC(F)F (stereo not drawn)
## Output 25

----------
Consider the following molecules; for each one, report its Foxtail, Giant plant response rating.
Test system: giant foxtail
Test: Test C pre-/postemergence test
Assay type: in vivo, Setaria faberii
Settings: 125 g ai/ha, preemergence; scale 0 (no effect) to 100 (complete control)

Guide cases for Foxtail, Giant plant response rating, answers given:
CC(Oc1c(CS(=O)(=O)c2cccc[n+]2[O-])c(C(F)(F)F)nn1C)C(F)(F)F (centres unmarked): 100
Cc1cc[n+]([O-])c(S(=O)(=O)C(Cl)c2c(C(F)(F)F)nn(C)c2OCC(F)(F)F)c1 (racemic): 85

Please look at the items below and tell me Foxtail, Giant plant response rating for each one, in order.
1. CC(C)c1cc[n+]([O-])c([S+]([O-])Cc2c(C(F)(F)F)nn(C)c2OC(F)F)c1 (centres unmarked)
2. CC(c1c(C(F)(F)F)nn(CC(F)(F)F)c1Cl)[S+]([O-])c1cccc[n+]1[O-] (centres unmarked)
3. Cc1cc[n+]([O-])c(S(=O)(=O)Cc2c(C(F)(F)F)nn(C)c2OC(C)C(F)(F)F)c1 (centres unmarked)

## Output
1. 100
2. 100
3. 95

Recorded values, source patent US20100298141A1.
